Data provenance is patent US20100120763A1.

endpoint: melting point

INSERT INTO measurements (compound_smiles, obs_value) VALUES
  ('Cc1ncccc1-c1nc(C)c2nnc3cc(F)ccc3n12', '169 to 172 °C'),
  ('COc1cc2nnc3c(C)nc(-c4ccccc4C(F)(F)F)n3c2cc1OC', '147 to 150 °C'),
  ('Cc1ccccc1-c1nc(C)c2nnc3cc(F)ccc3n12', '149 to 152 °C');
